Below, each entry is listed alongside its reported TGI.
# System: MDA-MB-468 breast
# Procedure Text: NCI tumour cell line growth inhibition, 48 h

{"Compound": "N#CN1CC[C@H](C(=O)Nc2cc3cc(C(N)=O)ccc3cn2)C1", "TGI, µM": 0.0289}
{"Compound": "COc1cc2c(cc1OC)CN(CCCCOc1cc(O)c3c(=O)cc(-c4ccccc4)oc3c1)CC2", "TGI, µM": 14}
{"Compound": "O=C(NCCNc1nccc(-c2c(-c3cccc(O)c3)nc3sccn23)n1)c1ccccc1", "TGI, µM": 28.7}
{"Compound": "CC1(C)CC[C@]2(C(=O)Nc3ccc(Br)cc3)CC[C@]3(C)C(=CCC4[C@@]5(C)C[C@@H](O)[C@H](O)[C@@](C)(CO)C5CC[C@]43C)C2C1 (stereo partly specified)", "TGI, µM": 29.4}
{"Compound": "COc1cc(/C=C/c2cc(/C=C/c3ccc(O)c(OC)c3)n(C(=O)Nc3ccc(Cl)cc3)n2)ccc1O", "TGI, µM": 1.82}
{"Compound": "CCCCCCCC(=O)OCC(=O)[C@]1(O)Cc2c(O)c3c(c(O)c2[C@@H](OC2CC(N)C(O)C(C)O2)C1)C(=O)c1c(OC)cccc1C3=O (stereo partly specified)", "TGI, µM": 0.301}
{"Compound": "COc1ccccc1NS(=O)(=O)c1ccc2oc(SC(C)C)nc2c1", "TGI, µM": 17.6}
{"Compound": "COc1cccc(/C(C)=N/NC(=O)CSc2nc3ccccc3c(=O)n2CCc2ccc(S(N)(=O)=O)cc2)c1", "TGI, µM": 8.76}
{"Compound": "O=C(CC(=O)c1cccc(Cl)c1)c1cccc(Cl)c1", "TGI, µM": 8.76}
{"Compound": "O=C(c1ccc(O)cc1)C1[C@H](c2ccc(Cl)cc2)[C@@H](c2ccccc2)NC12C(=O)Nc1ccc(Br)cc12 (stereo partly specified)", "TGI, µM": 21.3}
{"Compound": "C[C@@H]1COCCN1c1cc(C2([S@@](C)(=N)=O)CC2)nc(-c2ccnc3[nH]ccc23)n1", "TGI, µM": 25.6}

* * *

# Test system: SK-MEL-2 melanoma
# Procedure Text: NCI tumour cell line growth inhibition, 48 h
Each entry below carries its recorded TGI.
Observed Property: TGI (µM)

{"Compound": "O=C(c1ccc(O)cc1)C1[C@H](c2ccc(Cl)cc2)[C@@H](c2ccccc2)NC12C(=O)Nc1ccc(Br)cc12 (some centres undefined)", "Target Or Test System": "SK-MEL-2 melanoma", "Unit Abbrev": "µM", "Numeric Readout": 28.3}
{"Compound": "COc1cc2c(cc1OC)CN(CCCCOc1cc(O)c3c(=O)cc(-c4ccccc4)oc3c1)CC2", "Target Or Test System": "SK-MEL-2 melanoma", "Unit Abbrev": "µM", "Numeric Readout": 40.1}
{"Compound": "O=C1c2c(c3c4cc(F)ccc4oc3c3[nH]c4ccc(Br)cc4c23)C(=O)N1O", "Target Or Test System": "SK-MEL-2 melanoma", "Unit Abbrev": "µM", "Numeric Readout": 45.4}
{"Compound": "O=c1oc2ccc(-c3ccc(F)cc3F)cc2c(=O)n1-c1ccc(Cl)c(C(F)(F)F)c1", "Target Or Test System": "SK-MEL-2 melanoma", "Unit Abbrev": "µM", "Numeric Readout": 5.02}
